system: lipidic peroxidation of membrane lipids in rat hepatocytes (hepatic microsomal membranes); assay: In vitro antioxidant activity (TBARS test); format: biochemical; settings: Method B (2.5 μM FeSO4); read-out: Antioxidant activity IC50 μM (CL 95%)
property.label: IC50 (µM)
Quick note: give the figure in µM, leave out the unit.

Given the compound O=C(O)/C=C/c1ccc(O)c(O)c1 [Caffeic acid] , what is its reported IC50?
33

----------
I'd appreciate it if you could supply ΔΔ (mmHg), IOP change versus vehicle and versus basal IOP values for the items below.
system: hypertonic saline-induced IOP increase in rabbits; test: IOP lowering activity in hypertonic saline-induced IOP increase in rabbits; assay type: in vivo, New Zealand White rabbits; details: 60 min after topical administration

Name the reported ΔΔ (mmHg), IOP change versus vehicle and versus basal IOP value associated with the molecule CCN[C@H]1C[C@H](C)S(=O)(=O)c2sc(S(N)(=O)=O)cc21 [Dorzolamide, dorzolamide]
−6.9 ± 2.1 mmHg

Another molecule to look at: COC1=C(OC)C(=O)C(CCCOCCO[N+](=O)[O-])=C(C)C1=O [Compound (20)]
−18.9 ± 2.4 mmHg

Check CC(C)(C)NC[C@H](O)COc1nsnc1N1CCOCC1 [Timolol, timolol] too.
−5.7 ± 1.4 mmHg

And the next one, COC1=C(OC)C(=O)C(CCCCCCCCCCO[N+](=O)[O-])=C(C)C1=O [Compound (6)] ?
−7.4 ± 2.7 mmHg

Moving on to O=[N+]([O-])O[C@@H]1CO[C@H]2[C@@H]1OC[C@@H]2O [Compound 5-ISMN, isosorbide-5-mononitrate]
−0.7 ± 2.9 mmHg

Field entry: CC1=C(CCCOCCCO[N+](=O)[O-])C(=O)c2ccccc2C1=O [Compound (25)]
−11.5 ± 2.8 mmHg
